Assign inhibition at 0.5 h, 100 µM to each entry below.
# Tested system: MAO-B (amine oxidase [flavin-containing] B) (Homo sapiens, UniProt P27338)
# Sequence (P27338 whole entry): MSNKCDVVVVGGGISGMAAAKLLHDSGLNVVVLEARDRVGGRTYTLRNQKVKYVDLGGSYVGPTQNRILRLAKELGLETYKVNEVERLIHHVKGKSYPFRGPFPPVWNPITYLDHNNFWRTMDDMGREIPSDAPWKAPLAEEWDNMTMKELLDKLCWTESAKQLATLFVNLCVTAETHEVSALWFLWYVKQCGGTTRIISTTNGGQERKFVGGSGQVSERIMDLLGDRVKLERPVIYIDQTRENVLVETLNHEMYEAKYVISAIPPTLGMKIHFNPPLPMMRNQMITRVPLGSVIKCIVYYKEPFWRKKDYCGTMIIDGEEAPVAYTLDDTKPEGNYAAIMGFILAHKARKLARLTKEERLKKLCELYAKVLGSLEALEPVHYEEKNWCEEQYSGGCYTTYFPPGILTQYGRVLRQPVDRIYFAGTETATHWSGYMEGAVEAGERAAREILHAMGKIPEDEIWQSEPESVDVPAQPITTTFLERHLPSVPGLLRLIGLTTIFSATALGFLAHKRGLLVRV
# Assay: Inhibition of human recombinant MAOB expressed in Pichia pastoris at 100 uM incubated for 15 mins prior to substrate addition measured after 30 mins by luminescence assay
Answer with a number only, understood to be in %.

QUERY: Give the measured inhibition at 0.5 h, 100 µM of N[C@@H]1C[C@@H]1c1cccc(NC(=O)c2ccccc2)c1 .
RESULT: 34

QUERY: Can you look up the measured inhibition at 0.5 h, 100 µM of N[C@H]1C[C@@H]1c1cccc(NC(=O)c2ccccc2)c1 for me?
RESULT: 29

====

Assignment: determine reported IC50 for the given molecules.
Don't forget the unit after the number, please.

QUERY: Item N[C@H]1C[C@H]1c1cccc(NC(=O)c2ccccc2)c1 with Amine oxidase [flavin-containing] B (Homo sapiens) - IC50?
RESULT: 80.1 µM

QUERY: Kindly state the measured IC50 obtained for N[C@@H]1C[C@H]1c1cccc(NC(=O)c2ccccc2)c1 with Amine oxidase [flavin-containing] B (Homo sapiens).
Sequence (P27338 whole entry): as above
RESULT: 84.7 µM

src = ChEMBL document CHEMBL3414440
